tgt: T1, SARS-CoV2 Spike ecto foldon Trimer expressed with a C-terminal myc-myc-hexahistidine (SARS-CoV-2, UniProt P0DTC2 14-1213)
T1 construct: extracellular domain
measurement-protocol: SPR Biacore, mAb captured by anti-hFc, 37C
Recorded koff, one value per entry.
# number only, unit s⁻¹ dropped from output

Check out these entries, answers already filled in.
binder	unit-annotation	recorded-measurement
mAb15151 (antibody, V domains shown) VH: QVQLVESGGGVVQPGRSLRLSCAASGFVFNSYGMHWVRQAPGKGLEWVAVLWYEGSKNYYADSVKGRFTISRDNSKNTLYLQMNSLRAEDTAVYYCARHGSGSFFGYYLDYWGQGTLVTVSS VL: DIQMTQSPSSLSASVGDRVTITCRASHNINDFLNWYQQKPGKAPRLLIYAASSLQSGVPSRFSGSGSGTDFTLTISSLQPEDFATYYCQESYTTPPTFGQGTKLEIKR	s⁻¹	0.000248
mAb14284 (antibody, V domains shown) VH: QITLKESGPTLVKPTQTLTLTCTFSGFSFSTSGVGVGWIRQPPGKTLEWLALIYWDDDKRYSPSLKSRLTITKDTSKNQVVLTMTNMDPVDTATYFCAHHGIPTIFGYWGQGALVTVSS VL: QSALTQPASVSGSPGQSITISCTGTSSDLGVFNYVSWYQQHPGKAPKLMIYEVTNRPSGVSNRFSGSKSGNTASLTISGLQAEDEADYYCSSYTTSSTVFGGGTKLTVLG	s⁻¹	2.05e-05

We next turn to a different binder, shown below.
q: Recorded koff of mAb14234 (antibody, V domains shown) VH: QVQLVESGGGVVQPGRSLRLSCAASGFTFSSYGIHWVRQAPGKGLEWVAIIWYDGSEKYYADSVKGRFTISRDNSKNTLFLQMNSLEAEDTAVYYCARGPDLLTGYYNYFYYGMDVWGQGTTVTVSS VL: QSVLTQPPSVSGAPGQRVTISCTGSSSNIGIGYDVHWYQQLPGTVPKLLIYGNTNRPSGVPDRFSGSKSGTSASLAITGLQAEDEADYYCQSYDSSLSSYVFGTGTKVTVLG , please.
a: 7.16e-05
